- target of assay: 5-hydroxytryptamine receptor 1A (Homo sapiens) (UniProt P08908)
- Sequence (P08908 whole entry): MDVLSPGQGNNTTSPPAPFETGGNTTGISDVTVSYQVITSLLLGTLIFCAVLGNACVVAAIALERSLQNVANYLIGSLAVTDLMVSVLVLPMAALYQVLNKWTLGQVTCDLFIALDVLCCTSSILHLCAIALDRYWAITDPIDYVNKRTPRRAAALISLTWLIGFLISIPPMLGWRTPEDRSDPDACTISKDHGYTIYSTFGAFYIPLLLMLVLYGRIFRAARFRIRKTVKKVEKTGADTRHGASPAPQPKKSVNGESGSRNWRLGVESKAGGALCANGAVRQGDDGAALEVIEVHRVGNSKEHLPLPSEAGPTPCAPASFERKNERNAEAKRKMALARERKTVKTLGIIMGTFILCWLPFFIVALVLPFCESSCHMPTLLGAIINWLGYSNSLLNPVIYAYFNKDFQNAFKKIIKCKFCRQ
- protocol description: Inhibition of human recombinant 5HT1A receptor at 10 uM by radioligand binding assay
Activity calls are given as the source filed them. No cut-off for these calls is given here.
Respond using exactly one of the listed classes: active, inactive

# example entries with known answers
smiles_record=Cc1cc(C(N)=O)ccc1-n1c(CCC(=O)O)ccc1-c1ccc(-n2ccnc2)cc1 group_label=inactive
smiles_record=COc1ccc(-c2ccn(-c3ccc(C(=O)O)c(O)c3)c2-c2ccc(C(N)=O)cc2C)cc1 group_label=active
smiles_record=Cc1cc(C(N)=O)ccc1-c1c(CCC(=O)O)ccn1-c1ccc(-n2ccnc2)cc1 group_label=inactive
smiles_record=COc1ccc(-c2ccn(-c3ccc(O)c([N+](=O)[O-])c3)c2-c2ccc(C(N)=O)cc2C)cc1 group_label=active

Next compound, please.
// query Which outcome was assigned to Cc1cc(C(N)=O)ccc1-c1c(-c2ccc(-n3ccnc3)cc2)ccn1CCC(=O)O in this test?
// result inactive
